Experiment: Pharmacokinetic parameters for Bicalutamide following single oral administration of Bicalutamide tablets to 30 healthy male subjects and 40 patients with prostrate cancer.
Format: ADME, organism-based
Parameters: route oral
Conditions: human, in vivo; dosed compound id 25, dosed compound name BICALUTAMIDE, gender male, regimen Single dose, route oral, tissue Plasma
value.type: half-life
# include the unit after the value

Data request: Fill in: half-life of CC(O)(CS(=O)(=O)c1ccc(F)cc1)C(=O)Nc1ccc(C#N)c(C(F)(F)F)c1 (stereo unspecified) [BICALUTAMIDE] is ___
Data returned: 5.8 days

---

Assay: Pharmacokinetic parameters for Bicalutamide following single oral administration of Bicalutamide tablets to 30 healthy male subjects and 40 patients with prostrate cancer.
Format: ADME, organism-based
Design: route oral
Conditions: human, in vivo; dosed compound id 25, dosed compound name BICALUTAMIDE, gender male, regimen Single dose, route oral, tissue Plasma
value.type: Tmax

Data request: Fill in: Tmax of CC(O)(CS(=O)(=O)c1ccc(F)cc1)C(=O)Nc1ccc(C#N)c(C(F)(F)F)c1 (stereo unspecified) [BICALUTAMIDE] is ___
Data returned: 31.3 h

---

Test: Pharmacokinetic parameters for Bicalutamide following single oral administration of Bicalutamide tablets to 30 healthy male subjects and 40 patients with prostrate cancer.
Assay type: ADME, organism-based
Parameters: route oral
Conditions: human, in vivo; dosed compound id 25, dosed compound name BICALUTAMIDE, gender male, regimen Single dose, route oral, tissue Plasma
value.type: CL/F (mL/min)
Numbers only, in mL/min.

Data request: Fill in: CL/F of CC(O)(CS(=O)(=O)c1ccc(F)cc1)C(=O)Nc1ccc(C#N)c(C(F)(F)F)c1 (stereo unspecified) [BICALUTAMIDE] is ___
Data returned: 5.33
